Measured values drawn from ChEMBL document CHEMBL3612041 for this set.

measurement description: Solubility of the compound in RPMI-1640/Sula media by spectrophotometric analysis
Type: physicochemical
assay metric: solubility

Examples from the recorded data:
IN: Can you share its solubility? I mean this molecule: `O=C(NCCCCl)Oc1ccc(Cl)cc1C(=O)Nc1ccc(C(F)(F)F)cc1`
OUT: < 50 µM

IN: What would you report for `O=C(NCCCl)Oc1ccc(Br)cc1C(=O)Nc1ccc(C(=O)c2ccccc2)cc1` ?
OUT: < 50 µM

IN: What would you report for `CCCNC(=O)Oc1ccc(Cl)cc1C(=O)Nc1ccc(C(=O)c2ccccc2)cc1` ?
OUT: < 50 µM

IN: What would you report for `O=C(Nc1ccc(C(F)(F)F)cc1)c1cc(Br)ccc1O` ?
OUT: < 100 µM

IN: What would you report for `O=C(Nc1ccc(Cl)c(Cl)c1)c1cc(Br)ccc1O` ?
OUT: < 100 µM

Give me solubility for each of these molecules, listed below.
1. O=C(NCCCl)Oc1ccc(Br)cc1C(=O)Nc1ccc(Cl)c(Cl)c1
2. O=C(Oc1ccc(Br)cc1C(=O)Nc1ccc(C(F)(F)F)cc1)c1cnc(Cl)cn1
3. O=C(Oc1ccc(Cl)cc1C(=O)Nc1ccc(C(F)(F)F)cc1)c1cnc(Cl)cn1
4. CCCNC(=O)Oc1ccc(Cl)cc1C(=O)Nc1ccc(Cl)c(Cl)c1
5. O=C(Oc1ccc(Cl)cc1C(=O)Nc1ccc(Cl)c(Cl)c1)c1cnc(Cl)cn1

OUT:
< 50 µM
< 100 µM
< 100 µM
< 50 µM
< 100 µM
